System: M14
Assay: NCI tumour cell line growth inhibition, 48 h
Active and inactive are the calls of the source. Rule as the data show it: active = GI50 up to about 1.1 µM and inactive = higher. Starred links: 1 amine or outer side, 2 acyl side, 3 side chain; linkers in the order of their positions; H or OH if unused. Positions of bridges follow the written chain, without caps; N, C: chain ends. Non-standard residues stand in square brackets, D forms with d. Residues, ends and D or L forms follow the SMILES beside them. ξ: configuration not given here. *: point of attachment. γ4hArg(2R,3R-(OH)2) = N=C(N)NCCC[C@H](N[*:1])[C@@H](O)[C@@H](O)C(=O)[*:2]; Gln(3S,4R-Me2) = C[C@H]([C@H](N)C(=O)O)[C@@H](C)C(N)=O; X50 = CC(C)C[C@H](C)[C@@H](O)[C@@H](C)C(=O)*; X51 = COC(c1ccc(O)cc1)C(N[*:1])C(=O)[*:2]; NMeQ = CN[C@@H](CCC(N)=O)C(=O)O; Thr(3ξ) = CC(O)[C@H](N)C(=O)O; NMeA = CN[C@@H](C)C(=O)O
Mark one answer only. Choices: active, inactive

Past entries and their recorded results:
CC(C)(C)OC(=O)N(O)[C@@H]1C=C[C@H](n2cnc3c(N)ncnc32)C1 | inactive
CC(C)c1cccc(C(C)C)c1N1C(=O)C(=O)C(c2nc3ccccc3o2)C(=O)C1=O | inactive
C[C@@]12c3c4ccc(C=O)c3Oc3ccc(C=O)c(c31)Oc1c(C=O)ccc(c12)O4 | inactive
CCOC(=O)CCC(C(=O)OCC)n1nnc2cc(Nc3c(C)[n+]([O-])c4ccc(Cl)cc4[n+]3[O-])ccc21 (centres undefined) | inactive
CSc1[nH]nc(N)c1C(=O)Nc1ccc(Cl)cc1 | inactive
Nc1ccc(C(=O)NN2C(=O)C(Cl)C2c2ccccc2)cc1 (centres undefined) | inactive

Asked: Hey, what did the test say about "O=C(N/C(=C\c1cccc([N+](=O)[O-])c1)c1nc2ccccc2[nH]1)c1ccccc1" ?
Given back: inactive

Asked: # iterate: COC1=C(OC)C23CCc4ccc(OC)c(O)c4C2(CCN3)CC1=O (centres undefined)
Given back: inactive

Asked: # iterate: COC(c1ccc(O)cc1)C1NC(=O)[C@H](CCC(N)=O)N(C)C(=O)[C@H](CC(C)C)NC(=O)[C@@H](CCCN=C(N)N)NC(=O)[C@H](C(C)O)NC(=O)[C@@H](NC(=O)[C@@H](NC(=O)[C@H](O)[C@H](O)[C@H](CCCN=C(N)N)NC(=O)[C@H](C)NC(=O)[C@H](C)[C@H](O)[C@@H](C)CC(C)C)[C@@H](C)[C@@H](C)C(N)=O)[C@@H](C)OC(=O)[C@H](C)N(C)C1=O (stereo partly drawn) (X50-A[γ4hArg(2R,3R-(OH)2)][Gln(3S,4R-Me2)]T[Thr(3ξ)][dR]L[NMeQ][X51][NMeA]; ester 4-C)
Given back: active

These entries and their values trace back to ChEMBL document CHEMBL1201862.
